System: SK-MEL-28
assay text: NCI tumour cell line growth inhibition, 48 h
Calls of active or inactive are those of the source. Cut-off read from the data, not from the text of the source: active = GI50 up to about 1.1 µM and inactive = higher.
measured quantity: GI50

>>> result("COc1ccc(NC(=O)C2=C(SC)C(C#N)C(=O)N=C2N)cc1 (stereo unspecified)")
"> 100 µM (inactive)"
>>> result("CCOC(=O)CNC(=O)C(CCC(=O)N(C)O)NC(=O)CCC(N)C(=O)O (stereo unspecified)")
"> 100 µM (inactive)"
>>> result("Cc1ccc(NC(c2ccccc2)P(=O)(c2ccccc2)c2ccccc2)cc1 (stereo unspecified)")
"> 100 µM (inactive)"
>>> result("CN1C(=O)C2CCC(=O)N2c2cccnc21 (stereo unspecified)")
"> 100 µM (inactive)"
>>> result("O=c1c2ccccc2nc2n1NC(c1c(Cl)cccc1Cl)N2c1cccc(Cl)c1 (stereo unspecified)")
"12.7 µM (inactive)"
>>> result("O=C(/C=C/c1ccccc1O)c1ccccc1O")
"> 100 µM (inactive)"
